Target: GSK3β (h) (Homo sapiens)
Sequence (P49841 whole entry): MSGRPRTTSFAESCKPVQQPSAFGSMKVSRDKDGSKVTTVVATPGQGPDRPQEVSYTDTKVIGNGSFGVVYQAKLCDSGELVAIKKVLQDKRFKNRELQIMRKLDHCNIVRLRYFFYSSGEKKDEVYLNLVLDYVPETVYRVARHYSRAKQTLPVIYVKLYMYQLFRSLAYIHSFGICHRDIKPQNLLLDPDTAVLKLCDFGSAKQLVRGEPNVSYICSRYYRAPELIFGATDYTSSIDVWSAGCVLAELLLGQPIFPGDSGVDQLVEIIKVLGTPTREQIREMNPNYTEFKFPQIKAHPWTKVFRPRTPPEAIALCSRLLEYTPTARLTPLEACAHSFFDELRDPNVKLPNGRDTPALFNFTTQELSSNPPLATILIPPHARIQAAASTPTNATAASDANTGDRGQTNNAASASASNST
Test: GSK-3β human kinase inhibition, SPA
Format: biochemical
Conditions: read-out: GSK3b pIC50 (converted)
Readout Label: IC50

[
  {
    "Mol Smiles": "CN1CCNC(=O)CN2CCN(CC2)Cc2cccc(c2)Nc2nccc(n2)-c2ccc(cc2)C1",
    "Test Result": "1.32 µM"
  },
  {
    "Mol Smiles": "O=C1NCc2cccc(c2)-c2ccnc(n2)Nc2ccc(cc2)CN2C[C@H](O)C[C@@H]12",
    "Test Result": "> 10 µM"
  }
]

Qu. Record request: IC50 value, item COc1ccc2cc1CN(C)CCNC(=O)[C@@H]1CCCN1Cc1cc(C#N)cc(c1)Nc1nccc-2n1
Ans. > 10 µM

###

# pIC50 per entry
Tested on: HCT-116
Test: Cellular proliferation assay (Alamar blue), HCT-116
Format: cell-based
Details: Homo sapiens, 10% FCS, 72 hours with compound, Alamar blue 4 h
pIC50: −log10 of the molar value.

Some solved entries appear below for comparison.
[
  {
    "Compound": "O=C1NCCCc2cc(ccn2)-c2ccnc(n2)Nc2ccc(N3CCOCC3)c(c2)CN2CCCC12 (stereo not shown) [Compound 48]",
    "Test Result": "< 5.00"
  },
  {
    "Compound": "COc1ccc2cc1CN(C)CCCNC(=O)[C@@H]1CCCN1Cc1cccc(c1)Nc1nccc-2n1 [Compound 180]",
    "Test Result": "< 5.00"
  }
]

We next turn to a different compound, shown below.
Qu. Record request: pIC50 value, item COc1cc2cc(c1)Nc1nccc(n1)-c1ccc(OC)c(c1)CN(C)CCCNC(=O)[C@@H]1CCCN1C2 [Compound 171]
Ans. 5.18

###

Test system: HCT-116
Assay: Cellular proliferation assay (Alamar blue), HCT-116
Assay type: cell-based
Conditions: Homo sapiens, 10% FCS, 72 hours with compound, Alamar blue 4 h
Protocol: […] functional properties of these compounds were tested in cellular proliferation assays on a panel of different cell lines in the presence of 10% FCS serum (37° C. and 5% (v/v) CO2). In a first step these cells were seeded and incubated for 24 hours in the absence of compound. In the second step the cells were incubated for 72 hours with the compounds to be tested for 72 hours. The viable cell number was finally assessed in a standard Alamar blue cell viability assay. […]
Readout Label: IC50

[
  {
    "Compound": "COc1cc2cc(c1)Nc1nccc(n1)-c1ccc(cc1)CN(C)CCNC(=O)[C@@H]1CCCN1C2 [Compound 158]",
    "IC50": "> 10 µM"
  },
  {
    "Compound": "O=C1NCc2cccc(c2)-c2ccnc(n2)Nc2cccc(c2)CN2C[C@@H](O)C[C@@H]12 [Compound 45]",
    "IC50": "0.295 µM"
  },
  {
    "Compound": "C[C@@H]1NCc2cc(ccc2N2CCOCC2)Nc2nccc(n2)-c2ccc(cc2)OCCCNC1=O [Compound 5]",
    "IC50": "1.74 µM"
  },
  {
    "Compound": "O=C1NCc2cccc(c2)-c2ccnc(n2)Nc2ccc(C(=O)N3CCOCC3)c(c2)CN2CCC[C@@H]12 [Compound 26]",
    "IC50": "2.19 µM"
  },
  {
    "Compound": "CN1CCCNC(=O)[C@H](CO)NCc2cc(cc(N3CCOCC3)c2)Nc2nccc(n2)-c2ccc(cc2)C1 [Compound 10]",
    "IC50": "> 10 µM"
  }
]

Qu. Record request: IC50 value, item COc1ccc2cc1CN(C)CCNC(=O)CN1CCN(CC1)Cc1cc(cc(N3CCOCC3)c1)Nc1nccc-2n1 [Compound 145]
Ans. > 10 µM

Qu. Subsequent entry: CC(C)(C)O[C@@H]1C[C@H]2C(=O)NCc3cccc(c3)-c3ccnc(n3)Nc3ccccc3CN2C1 [Compound 58]
Ans. > 10 µM

Qu. Subsequent entry: CN1CCCNC(=O)[C@@H]2CCCN2Cc2cc(cc(N3CCOCC3)c2)Nc2nccc(n2)-c2ccc(cc2)C1 [Compound 16]
Ans. > 10 µM

Qu. Subsequent entry: COc1ccc2cc1CN(C)CCNC(=O)[C@@H]1CCCN1Cc1cccc(c1)Nc1nccc-2n1 [Compound 175]
Ans. > 10 µM
